test: qHTS assay to identify aromatase inhibitors - cell viability counter screen (AID 743084); details: MCF-7 aro ERE viability, CellTiter-Fluor, 24 h; series mostly up to 70.3 µM;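 further: cells stimulated with testosterone during compound exposure; nearly all actives have a fitted effect of over 55% in size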
Inconclusive results are not listed. The source made the active and inactive calls. The call rests on the fitted dose curve; in most records, active means well fitted cell-killing curve with a large enough effect in the repeat runs; inconclusive means weak or mixed curves, or effect the other way; inactive means no such curve, though single readings can be large or run the other way.
Labels: active, inactive

compound: NC(=O)C(Cl)Cl
group label: inactive
//
compound: CCCCC(CC)COC(=O)OOC(C)(C)C (centres undefined)
group label: inactive
//
compound: CC(=O)[O][Pb]([c]1ccccc1)([c]1ccccc1)[c]1ccccc1
group label: active
//
compound: [Cl-].[Cl-].[Cl-].[Yb+3]
group label: inactive
//
compound: CCCCCON=O
group label: inactive
//
compound: COc1c2c(cc3c1OCO3)CCN(C)C2
group label: inactive
//
compound: N#Cc1ccc(N(CC(N)=O)CC(F)(F)F)cc1C(F)(F)F
group label: inactive
//
compound: [Cl][Hg][c]1ccccc1
group label: active
//
compound: CCOP(=S)(OCC)Oc1cc(C)nc(N(CC)CC)n1
group label: inactive

* * *

assay: qHTS assay to identify small molecule antagonists of the peroxisome proliferator-activated receptor delta (PPARd) signaling pathway - cell viability counter screen (AID 743213); settings: PPARd-bla HEK293H viability, CellTiter-Glo luminescence, 17 h; series mostly up to 62 µM; further: nearly all actives have a fitted effect of over 50% in size
Inconclusive results are not listed. Activity calls are given as the source filed them. The call rests on the fitted dose curve; in most records, active means well fitted cell-killing curve with a large enough effect in the repeat runs; inconclusive means weak or mixed curves; inactive means no such curve, though single readings can be large or run the other way.
Possible outcomes: true (1) (active), false (0) (inactive)

compound: C#CC1(O)CCCCC1
group label: false (0)

compound: Nc1nc(N)c(N)c(N)n1
group label: false (0)

compound: COc1cnc(OC)n2nc(NS(=O)(=O)c3c(OCC(F)F)cccc3C(F)(F)F)nc12
group label: false (0)

compound: CCC(C)Nc1c([N+](=O)[O-])cc(C(C)(C)C)cc1[N+](=O)[O-] (centres undefined)
group label: false (0)

compound: CC[C@H](C)[C@H]1O[C@]2(C=C[C@@H]1C)C[C@@H]1C[C@@H](C/C=C(\C)[C@@H](O[C@H]3C[C@H](OC)[C@@H](O[C@H]4C[C@H](OC)[C@@H](NC)[C@H](C)O4)[C@H](C)O3)[C@@H](C)/C=C/C=C3\CO[C@@H]4[C@H](O)C(C)=C[C@@H](C(=O)O1)[C@]34O)O2
group label: true (1)

compound: CC(O)C(=O)[O][Hg][c]1ccccc1 (centres undefined)
group label: true (1)

compound: N#Cc1sc2c(=O)c3ccccc3c(=O)c=2sc1C#N
group label: true (1)

compound: CC(=O)[O-].CC(=O)[O-].O.O.[Zn+2]
group label: false (0)

compound: CCOC(=O)CCN(SN(C)C(=O)Oc1cccc2c1OC(C)(C)C2)C(C)C
group label: false (0)

compound: O.O.O.O.O.O.O.O=S(=O)([O-])[O-].[Co+2]
group label: false (0)

compound: Cc1nn(-c2cc(NS(C)(=O)=O)c(Cl)cc2Cl)c(=O)n1C(F)F
group label: false (0)

compound: O=C1C[C@@H]2OCC=C3CN4CC[C@]56c7ccccc7N1[C@H]5[C@H]2[C@H]3C[C@H]46
group label: false (0)

compound: S=C=Nc1ccccc1
group label: false (0)

compound: CSC(C)(C)/C=N/O
group label: false (0)

compound: Brc1ccc(Oc2ccc(Br)cc2Br)c(Br)c1
group label: false (0)

compound: CC(C)c1c(CN(C)C(C)Cc2ccccc2)n(C)n(-c2ccccc2)c1=O (centres undefined)
group label: true (1)

compound: Oc1ccc(Cl)c(Cl)c1
group label: false (0)

compound: Oc1cccc(Cl)c1Cl
group label: false (0)

compound: O=C(Nc1ccc(F)cc1F)c1cccnc1Oc1cccc(C(F)(F)F)c1
group label: false (0)

compound: C=CCOC(=O)c1ccccc1N
group label: false (0)

compound: CC1(C)[C@H](/C=C2\CCSC2=O)[C@@H]1C(=O)OCc1coc(Cc2ccccc2)c1
group label: false (0)

compound: C#CCO
group label: false (0)

compound: CCC(C)c1cccc(C(C)CC)c1O (centres undefined)
group label: false (0)

compound: CN
group label: false (0)
